Assay system Histone deacetylase 1 (Homo sapiens); read-out recorded as IC50.
Give the value in nM but do not write nM after it.

Use these answered entries as a reference point.
> print(dat)
                      smiles.representation  data.value
1  [11CH3]n1cc(CCNCc2ccc(/C=C/C(=O)NO)cc2)c2ccccc21         0.2
2  O=C(CCCCCn1cc(-c2ccc(C(=O)c3c(-c4ccc(O)cc4)sc4cc(O)ccc34)cc2)nn1)NO        1030
3  COc1cc2c(Nc3cccc(/C=C/C(=O)NO)c3)ncnc2cc1OCCCN1CCOCC1         160
4  CC(C)Cc1c(OCCOc2cccc(/C=C/C(=O)NO)c2)ccc2c1OC(=O)CC2        66.7

As a next step, examine the compound that follows.
Any idea what IC50 was measured for `O=C(CCc1ccc(Oc2cccs2)c(O)c1)Nc1ccc(C(=O)NO)cc1` ? 24
